Target: T1, human GIP receptor (human, UniProt P48546 22-466)
T1 sequence (looked up): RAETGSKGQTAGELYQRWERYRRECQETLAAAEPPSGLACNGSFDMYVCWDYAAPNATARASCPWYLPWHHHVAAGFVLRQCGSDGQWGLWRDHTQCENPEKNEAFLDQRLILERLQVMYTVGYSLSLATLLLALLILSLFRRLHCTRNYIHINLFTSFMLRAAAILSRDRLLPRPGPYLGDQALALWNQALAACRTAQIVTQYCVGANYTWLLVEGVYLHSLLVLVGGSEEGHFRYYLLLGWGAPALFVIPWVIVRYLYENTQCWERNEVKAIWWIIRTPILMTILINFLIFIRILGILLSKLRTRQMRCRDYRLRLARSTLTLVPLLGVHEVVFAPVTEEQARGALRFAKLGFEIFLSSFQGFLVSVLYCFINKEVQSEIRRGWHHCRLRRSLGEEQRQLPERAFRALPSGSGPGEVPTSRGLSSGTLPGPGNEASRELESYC
Test: cell-based or functional assay
Starred links: 1 amine or outer side, 2 acyl side, 3 side chain; linkers in the order of their positions; H or OH if unused. Non-standard residues stand in square brackets, D forms with d. Groups on a side chain read outwards from the residue. No end group written: not given here. *: point of attachment. C18 diacid = O=C(O)CCCCCCCCCCCCCCCCC(=O)*; εLys = N[C@@H](CCCCN[*:1])C(=O)[*:2]; Aib = CC(C)(N)C(=O)O
MEASURE NAME: EC50, CreLuc assay, 0.5% hP (nM)
Entry rule: numbers only, all in nM.

Worked cases, answers included:
[
  {
    "BINDER": "Y[Aib]EGTFTSDYSI[Aib]LEKQAQ[Aib]AFVQWLIKGGPSYYASLRHYYNWLTRQRY-NH2 (not fully specified (residue 28); also: TFA salt) [Compound 59]",
    "UNIT ABBREVIATION": "nM",
    "EC50, CreLuc assay, 0.5% hP": 0.49
  },
  {
    "BINDER": "Y[Aib]EGTFTSDYSI[Aib]LEKQAE[Aib]AFVQWLIKGGPSEPASLRHYYNWLTRQRY-NH2 (not fully specified (residue 28); also: TFA salt) [Compound 54]",
    "UNIT ABBREVIATION": "nM",
    "EC50, CreLuc assay, 0.5% hP": 0.24
  },
  {
    "BINDER": "Y[Aib]EGTFTSDYSI[Aib]LEKQAQ[Aib]AFVQWLIK([εLys-Glu-Glu-Glu-Glu-Glu-C18 diacid])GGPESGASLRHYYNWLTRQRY-NH2 (also: TFA salt) [Compound 63]",
    "UNIT ABBREVIATION": "nM",
    "EC50, CreLuc assay, 0.5% hP": 0.13
  },
  {
    "BINDER": "YXEGTFTSDYSIXLEXEAQXKFVEWLIKGGPSSGASLRHYYNWLTRQRY (Aib at 2, 13, 16, 20; K28 side chain: C20DA-gGlu-gGlu-gGlu-gGlu-gGlu-gGlu-eLys; C-terminal NH2) [Compound 16]",
    "UNIT ABBREVIATION": "nM",
    "EC50, CreLuc assay, 0.5% hP": 0.66
  },
  {
    "BINDER": "YXEGTFTSDYSIXLEEQAQXAFVQWLIKGGPSSGASLRHYYNWLTRQRY (Aib at 2, 13, 20; K28 side chain: C20DA-gGlu-gGlu-Glu-gGlu-gGlu-gGlu-eLys; C-terminal NH2) [Compound 30]",
    "UNIT ABBREVIATION": "nM",
    "EC50, CreLuc assay, 0.5% hP": 0.13
  },
  {
    "BINDER": "YXEGTFTSDYSIXLEKQAQXAFVQWLIKGGPSSYVSLRHYYNWLTRQRY (Aib at 2, 13, 20; K28 side chain: C20DA-gGlu-gGlu-gGlu-gGlu-gGlu-gGlu-eLys; C-terminal NH2) [Compound 15]",
    "UNIT ABBREVIATION": "nM",
    "EC50, CreLuc assay, 0.5% hP": 0.32
  }
]

Return reported EC50, CreLuc assay, 0.5% hP; argument: YXEGTFTSDYSIXLEKEAQXKFVEWLIKGGPSSGASLRHYYNWLTRQRY (Aib at 2, 13, 20; K28 side chain: C20DA-gGlu-gGlu-gGlu-gGlu-gGlu-gGlu-eLys; C-terminal NH2) [Compound 46] 0.2
